system: Leukemia L1210; experiment: Activity against Leukemia L1210, intraperitoneal, increase in life span of mice; type: in vivo, female mice (BDF1 family); conditions: ip; O.D./ILS30
READOUT: Therapeutic ratio TR
I'd appreciate a reply containing only the number, no unit.

Value wanted: Therapeutic ratio TR (Leukemia L1210) of entry COCC(C)N(C(=O)N(CCCl)N=O)C1C(CO)OC(OCC(C)C)C(O)C1O (centres unmarked) 36.1

Then what about the compound CCC(C)O[C@H]1O[C@H](CN(C(=O)N(CCCl)N=O)C(C)CO)[C@@H](O)[C@H](O)[C@H]1O (some centres unmarked) ? 43.4

Then what about the compound COCC(C)OC1OC(CO)C(O)C(O)C1N(CC(C)C)C(=O)N(CCCl)N=O (centres unmarked) ? 38.4

Then what about the compound O=NN(CCCl)C(=O)N[C@@H]1O[C@H](CO)[C@@H](O)[C@H](O)[C@H]1O [GANU, reference compound] ? 13.8

Then what about the compound O=NN(CCCl)C(=O)N(CC1CCCCC1)[C@H]1[C@@H](O)[C@@H](CO)O[C@H](OC2CCCCC2)[C@@H]1O ? 33.4

Then what about the compound CC(C)CN(C[C@@H]1O[C@@H](OC2CCCCC2)[C@H](O)[C@@H]1O)C(=O)N(CCCl)N=O ? 45.5

Then what about the compound CCCN(C(=O)N(CCCl)N=O)C1C(CO)OC(OCC(C)C)C(O)C1O (centres unmarked) ? 32.6

Then what about the compound CC(C)CN(C(=O)N(CCCl)N=O)[C@@H]1[C@@H](O)[C@@H](OC2CCCCC2)OC[C@H]1O ? 48.1

Then what about the compound CC(C)(C)O[C@H]1O[C@H](CN(C(=O)N(CCCl)N=O)C2CCCCC2)[C@@H](O)[C@H](O)[C@H]1O ? 50.6

Then what about the compound CCN(C[C@H]1O[C@H](OCC(C)C)[C@H](O)[C@@H](O)[C@H]1O)C(=O)N(CCCl)N=O ? 30.7

Then what about the compound COCCCO[C@@H]1O[C@H](CN(CCCOC)C(=O)N(CCCl)N=O)[C@@H](O)[C@H]1O ? 48.5

Then what about the compound COCCCO[C@H]1O[C@H](CN(CC(C)C)C(=O)N(CCCl)N=O)[C@@H](O)[C@H](O)[C@H]1O ? 64.2

Then what about the compound CC(C)CO[C@H]1O[C@H](CO)[C@@H](O)[C@H](O)[C@H]1N(CC(C)C)C(=O)N(CCCl)N=O ? 32.4

Then what about the compound O=NN(CCCl)C(=O)N(CCC1CCCC1)C1C(O)C(CO)OC(OC2CCCCC2)C1O (centres unmarked) ? 30.2

Then what about the compound COCC(C)OC1OC(CO)C(O)C(N(CC(C)C)C(=O)N(CCCl)N=O)C1O (centres unmarked) ? 40.6

Then what about the compound CC(C)CN(C(=O)N(CCCl)N=O)[C@H]1[C@H](O)[C@H](OC2CCCCC2)O[C@@H]1CO ? 32.6

Then what about the compound CCCCO[C@H]1O[C@H](CN(C)C(=O)N(CCCl)N=O)[C@H](O)[C@H](O)[C@H]1O ? 36.2

Then what about the compound CCCCO[C@H]1O[C@H](CN(CC(C)OC)C(=O)N(CCCl)N=O)[C@@H](O)[C@H](O)[C@H]1O (some centres unmarked) ? 58.6

Then what about the compound COCCCO[C@H]1O[C@H](CN(CC(C)(C)C)C(=O)N(CCCl)N=O)[C@@H](O)[C@H](O)[C@H]1O ? 64.3

Then what about the compound CCOCCN(C(=O)N(CCCl)N=O)[C@H]1[C@@H](OCC(C)C)O[C@H](CO)[C@H](O)[C@@H]1O ? 40.2

Then what about the compound COc1ccc(CN(C[C@H]2O[C@H](OCC(C)C)[C@H](O)[C@@H](O)[C@@H]2O)C(=O)N(CCCl)N=O)cc1 ? 36.7

Then what about the compound CC(C)CO[C@H]1O[C@H](CN(C(=O)N(CCCl)N=O)C(C)C)[C@@H](O)[C@H](O)[C@H]1O ? 43.3

Then what about the compound CCCCN(C[C@H]1O[C@H](OCCCOC)[C@H](O)[C@@H](O)[C@@H]1O)C(=O)N(CCCl)N=O ? 57.5

Then what about the compound COC(C)CCO[C@H]1O[C@H](CN(C(=O)N(CCCl)N=O)C(C)(C)C)[C@@H](O)[C@H](O)[C@H]1O (some centres unmarked) ? 65.3

Then what about the compound CO[C@H]1O[C@H](CNC(=O)N(CCCl)N=O)[C@@H](O)[C@H](O)[C@H]1O [Compound 6MCαGM, reference compound] ? 20.1

Then what about the compound COC(C)CN(C(=O)N(CCCl)N=O)[C@H]1CO[C@@H](OCC(C)C)[C@H](O)[C@H]1O (some centres unmarked) ? 58.4

Then what about the compound CCOCCN(C(=O)N(CCCl)N=O)[C@@H]1[C@@H](O)[C@@H](OC2CCCCC2)OC[C@H]1O ? 58.6

Then what about the compound CCC(C)N(C[C@H]1O[C@H](OC2CCCCC2)[C@H](O)[C@@H](O)[C@@H]1O)C(=O)N(CCCl)N=O (some centres unmarked) ? 54.2

Then what about the compound CC(C)COC1OC(CO)C(N(C(=O)N(CCCl)N=O)C(C)C)C(O)C1O (centres unmarked) ? 31.8
